Measured values drawn from the supplement of paper PMC8728848 for this set.

Please respond with reported glycan array binding signal (z-score) for every item in the list.
- study system: Gal(b1-6)Gal
- experiment notes: glycan array binding signal (z-score within array); higher = stronger binding
- experimental setup: glycan notation: IUPAC condensed, linker removed
The entries come from a sample that favours the strongest signals as a whole.
Numbers only.

- binder: "CALR truncated at D342 (Homo sapiens) (protein) EPAVYFKEQFLDGDGWTSRWIESKHKSDFGKFVLSSGKFYGDEEKDKGLQTSQDARFYALSASFEPFSNKGQTLVVQFTVKHEQNIDCGGGYVKLFPNSLDQTDMHGDSEYNIMFGPDICGPGTKKVHVIFNYKGKNVLINKDIRCKDDEFTHLYTLIVRPDNTYEVKIDNSQVESGSLEDDWDFLPPKKIKDPDASKPEDWDERAKIDDPTDSKPEDWDKPEHIPDPDAKKPEDWDEEMDGEWEPPVIQNPEYKGEWKPRQIDNPDYKGTWIHPEIDNPEYSPDPSIYAYDNFGVLGLDLWQVKSGTIFDNFLITNDEAYAEEFGNETWGVTKAAEKQMKD"
  measured number: 0.132

Please look at the following binder next.
input: Fill blank: measured glycan array binding signal (z-score) of the binder Sebin1 (Coprinopsis cinerea), A8PEE3 (protein) MTSPFYAHIHNVQDDNTWRFTLIFANRATADEWWRAISEAPANTSIAKSITRVTPQYYTHDVNIWNIWNFFADGNIKSISERFRGRLFIVLENDRGGRGITVIPPVPIVDHVSGNWFYIRSKTAPHLFWYYDERRSSIYASKEKRTRFKISIRNPSSQTPKNAIMINTDDVTIHIKENLYVGVDNNLGHIIPTRAYRTFKFGELESGAIAGFDVVENIEERCSSTFDGASLSISGPDSSSPGEPWELV is ____.
output: 0.332
